System: DU-145
Experiment: Cytotoxicity against human DU145 cells after 3 days
Assay type: functional, cell-based
Settings: DU-145, 72 h
Structures can show the parent of a compound that is named as a salt.
This section presents compounds with their documented pIC50 values.
The meaning of pIC50 here: minus log10 of the concentration in molar units.

{"compound": "CC[C@@]1(O)C(=O)OCc2c1cc1n(c2=O)Cc2cc3ccccc3nc2-1", "tested.system": "DU-145", "pIC50": 5.84}

// switching to the query compound
Lookup: Request: pIC50, test system DU-145, entry COc1cccc2c1C(=O)c1c(O)c3c(c(O)c1C2=O)C[C@@](O)(C(=O)CO)C[C@@H]3O[C@H]1C[C@H](N)[C@H](O)[C@H](C)O1 [DOXORUBICIN HYDROCHLORIDE]
Found: 5.89

* * *

System: MDA-MB-231
Test: Cytotoxicity against human MDA-MB-231 cells after 3 days
Format: functional, cell-based
Conditions: MDA-MB-231, 72 h
Where a name gives a salt, the structure may show the parent alone.
measured.property: log10 of IC50 (log10 of the value in µM)
For clarity, the numbers are log10 values of IC50 expressed in µM.

{"compound": "Cc1ccsc1-c1cc(-c2ccco2)cc(-c2cccs2)n1", "measured.property": "log10 of IC50", "observed.result": 1.78}

Lookup: Could you tell me which log10 of IC50 is on file for Clc1ccc(-c2cc(-c3ccsc3)nc(-c3cccs3)c2)o1 ?
Found: 1.43

Lookup: Proceed to Clc1ccc(-c2cc(-c3cccs3)nc(-c3cccs3)c2)o1
Found: 1.74

Lookup: Same for COc1cccc2c1C(=O)c1c(O)c3c(c(O)c1C2=O)C[C@@](O)(C(=O)CO)C[C@@H]3O[C@H]1C[C@H](N)[C@H](O)[C@H](C)O1 [DOXORUBICIN HYDROCHLORIDE]
Found: 0.06

Lookup: Next: CC[C@@]1(O)C(=O)OCc2c1cc1n(c2=O)Cc2cc3ccccc3nc2-1 [CAMPTOTHECIN]
Found: 0.04

* * *

Organism: Bos taurus
Assay: Inhibition of calf thymus topoisomerase 1-mediated relaxation of supercoiled pBR322 DNA at 100 uM after 30 mins by agarose gel electrophoresis
measured.property: inhibition (%)
Give the quantity in %, number only.

Check out these entries, answers already filled in.
{"molecule": "Cc1ccc(-c2cc(-c3ccsc3)nc(-c3ccsc3)c2)o1", "unit.info": "%", "inhibition": 0}
{"molecule": "Cc1ccc(-c2cc(-c3ccsc3)nc(-c3cccs3)c2)o1", "unit.info": "%", "inhibition": 0}
{"molecule": "Cc1ccsc1-c1cc(-c2ccco2)cc(-c2sccc2C)n1", "unit.info": "%", "inhibition": 92}
{"molecule": "c1coc(-c2cc(-c3ccsc3)nc(-c3ccsc3)c2)c1", "unit.info": "%", "inhibition": 0}
{"molecule": "c1coc(-c2cc(-c3ccsc3)nc(-c3cccs3)c2)c1", "unit.info": "%", "inhibition": 12}
{"molecule": "Cc1ccsc1-c1cc(-c2ccco2)cc(-c2ccsc2)n1", "unit.info": "%", "inhibition": 52}

Lookup: Item under review: Cc1ccc(-c2cc(-c3cccs3)nc(-c3cc(C)sc3C)c2)o1 . Reported inhibition?
Found: 5

Lookup: Repeat with c1cc(-c2cc(-c3ccsc3)nc(-c3ccsc3)c2)co1
Found: 0

Lookup: How about this molecule: Cc1ccsc1-c1cc(-c2ccoc2)cc(-c2ccsc2)n1
Found: 13

* * *

Target: UniProt P11388
Test: Inhibition of human topoisomerase 2 alpha-mediated relaxation of supercoiled pBR322 DNA at 20 uM after 30 mins by agarose gel electrophoresis
measured.property: inhibition (%)
Give the value, in units of %, as a plain number.

{"compound.structure.string": "Cc1ccc(-c2cc(-c3cccs3)nc(-c3cccs3)c2)o1", "tested.system": "UniProt P11388", "unit.info": "%", "inhibition": 0}

Lookup: // query inhibition value for entry Cc1ccc(-c2cc(-c3ccsc3)nc(-c3cccs3)c2)o1
Found: 0

Lookup: Another molecule to look at: Cc1ccc(-c2cc(-c3ccsc3)nc(-c3ccsc3)c2)o1
Found: 0

Lookup: Queued: Cc1ccsc1-c1cc(-c2ccco2)cc(-c2cccs2)n1
Found: 9

Lookup: # repeat for Cc1ccc(-c2cc(-c3ccsc3)nc(-c3cc(C)sc3C)c2)o1
Found: 0

Lookup: Another molecule: Clc1ccc(-c2cc(-c3ccsc3)nc(-c3cccs3)c2)o1
Found: 7

* * *

Target: DNA topoisomerase 2-alpha (Homo sapiens)
Assay: Inhibition of human topoisomerase 2 alpha-mediated relaxation of supercoiled pBR322 DNA at 20 uM after 30 mins by agarose gel electrophoresis
measured.property: inhibition (%)
Use % as the unit, but write only the number.

The cases that follow already have their inhibition on record.
{"compound.structure.string": "c1cc(-c2cc(-c3ccsc3)nc(-c3ccsc3)c2)co1", "inhibition, %": 4}
{"compound.structure.string": "Clc1ccc(-c2cc(-c3ccsc3)nc(-c3ccsc3)c2)o1", "inhibition, %": 0}
{"compound.structure.string": "c1csc(-c2cc(-c3ccoc3)cc(-c3ccsc3)n2)c1", "inhibition, %": 1}
{"compound.structure.string": "Cc1ccc(-c2cc(-c3ccsc3)nc(-c3sccc3C)c2)o1", "inhibition, %": 0}
{"compound.structure.string": "Cc1ccsc1-c1cc(-c2ccco2)cc(-c2ccsc2)n1", "inhibition, %": 11}

Now for another entry.
Lookup: Notebook: pull reported inhibition for DNA topoisomerase 2-alpha (Homo sapiens), entry Cc1ccsc1-c1cc(-c2ccoc2)cc(-c2sccc2C)n1
Found: 0

* * *

System: DU-145
Test: Cytotoxicity against human DU145 cells after 3 days
Assay type: functional, cell-based
Conditions: DU-145, 72 h
Quick reference: pIC50 of the listed items.
// pIC50 is dimensionless: -log10 of concentration (M)

{"compound": "Cc1ccsc1-c1cc(-c2ccco2)cc(-c2sccc2C)n1", "tested.system": "DU-145", "observed.result": 4.01}
{"compound": "COc1cc([C@@H]2c3cc4c(cc3[C@@H](O[C@@H]3O[C@@H]5CO[C@@H](C)O[C@H]5[C@H](O)[C@H]3O)[C@H]3COC(=O)[C@H]23)OCO4)cc(OC)c1O [ETOPOSIDE]", "tested.system": "DU-145", "observed.result": 4.68}

Here is another compound to look at.
Lookup: Requested read-out: pIC50. Entry: Clc1ccc(-c2cc(-c3cccs3)nc(-c3cccs3)c2)o1
Found: 4.05

* * *

Molecular target: DNA topoisomerase 2-alpha (Homo sapiens) (UniProt P11388)
Sequence (P11388 whole entry): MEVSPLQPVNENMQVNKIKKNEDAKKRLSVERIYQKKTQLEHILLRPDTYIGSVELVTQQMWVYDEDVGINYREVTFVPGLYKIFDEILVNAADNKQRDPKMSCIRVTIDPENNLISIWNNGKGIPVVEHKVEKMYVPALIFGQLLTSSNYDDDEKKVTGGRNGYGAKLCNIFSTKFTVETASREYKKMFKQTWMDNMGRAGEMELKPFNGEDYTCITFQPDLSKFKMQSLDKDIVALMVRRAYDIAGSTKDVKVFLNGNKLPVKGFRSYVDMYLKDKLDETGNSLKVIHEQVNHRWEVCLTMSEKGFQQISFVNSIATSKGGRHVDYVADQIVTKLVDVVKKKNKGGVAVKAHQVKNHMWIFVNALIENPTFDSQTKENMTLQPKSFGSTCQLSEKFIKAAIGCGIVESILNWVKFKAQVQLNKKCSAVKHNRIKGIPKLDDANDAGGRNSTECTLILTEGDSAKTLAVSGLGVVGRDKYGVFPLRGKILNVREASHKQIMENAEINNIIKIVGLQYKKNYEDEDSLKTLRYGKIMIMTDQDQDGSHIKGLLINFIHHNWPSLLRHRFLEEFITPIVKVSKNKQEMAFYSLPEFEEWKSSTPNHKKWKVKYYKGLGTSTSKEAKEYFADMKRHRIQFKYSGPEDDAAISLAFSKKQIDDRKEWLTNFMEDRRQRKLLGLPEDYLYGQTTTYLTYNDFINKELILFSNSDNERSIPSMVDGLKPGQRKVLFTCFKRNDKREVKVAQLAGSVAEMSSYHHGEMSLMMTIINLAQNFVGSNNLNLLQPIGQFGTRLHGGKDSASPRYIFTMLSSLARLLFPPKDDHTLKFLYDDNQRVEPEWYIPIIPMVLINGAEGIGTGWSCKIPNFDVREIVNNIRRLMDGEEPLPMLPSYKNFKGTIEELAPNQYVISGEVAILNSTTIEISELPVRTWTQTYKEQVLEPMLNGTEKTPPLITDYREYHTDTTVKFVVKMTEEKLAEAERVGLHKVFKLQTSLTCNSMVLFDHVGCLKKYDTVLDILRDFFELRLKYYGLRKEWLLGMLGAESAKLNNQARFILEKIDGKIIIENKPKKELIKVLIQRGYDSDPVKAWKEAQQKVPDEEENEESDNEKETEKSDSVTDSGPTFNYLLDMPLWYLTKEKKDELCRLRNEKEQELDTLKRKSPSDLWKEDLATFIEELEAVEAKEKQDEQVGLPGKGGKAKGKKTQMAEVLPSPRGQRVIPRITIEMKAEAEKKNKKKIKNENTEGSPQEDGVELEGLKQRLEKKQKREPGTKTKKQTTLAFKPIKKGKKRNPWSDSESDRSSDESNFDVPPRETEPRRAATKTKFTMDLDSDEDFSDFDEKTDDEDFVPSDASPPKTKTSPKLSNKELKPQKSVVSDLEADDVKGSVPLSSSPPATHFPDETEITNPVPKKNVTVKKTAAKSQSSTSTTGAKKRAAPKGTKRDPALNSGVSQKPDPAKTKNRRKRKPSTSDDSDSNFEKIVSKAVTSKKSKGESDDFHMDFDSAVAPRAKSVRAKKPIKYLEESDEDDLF
Test: Inhibition of human topoisomerase 2 alpha-mediated relaxation of supercoiled pBR322 DNA at 100 uM after 30 mins by agarose gel electrophoresis
Threshold check on inhibition: at or above 30% gives t, strictly below gives f.

Known results for molecules:
{"molecule": "Cc1ccsc1-c1cc(-c2ccoc2)cc(-c2sccc2C)n1", "qualitative.label": "f"}
{"molecule": "Clc1ccc(-c2cc(-c3ccsc3)nc(-c3cccs3)c2)o1", "qualitative.label": "t"}
{"molecule": "c1csc(-c2cc(-c3ccoc3)cc(-c3ccsc3)n2)c1", "qualitative.label": "f"}
{"molecule": "Cc1ccc(-c2cc(-c3ccsc3)nc(-c3ccsc3)c2)o1", "qualitative.label": "f"}

Lookup: Could you tell me if the measured inhibition of Cc1ccsc1-c1cc(-c2ccco2)cc(-c2sccc2C)n1 reaches 30% or more?
Found: f

Lookup: Now consider Cc1ccsc1-c1cc(-c2ccco2)cc(-c2cccs2)n1 and answer again.
Found: f

* * *

Listing of recorded pIC50 by entry.
System: MDA-MB-231
Experiment: Cytotoxicity against human MDA-MB-231 cells after 3 days
Format: functional, cell-based
Conditions: MDA-MB-231, 72 h
Recall that pIC50 is obtained by taking minus log10 of the concentration measured in molar.

Look over these answered cases.
{"compound": "Cc1ccsc1-c1cc(-c2ccco2)cc(-c2sccc2C)n1", "measured.property": "pIC50", "observed.result": 4.42}
{"compound": "Cc1ccsc1-c1cc(-c2ccco2)cc(-c2ccsc2)n1", "measured.property": "pIC50", "observed.result": 4.38}
{"compound": "c1csc(-c2cc(-c3ccoc3)cc(-c3cccs3)n2)c1", "measured.property": "pIC50", "observed.result": 4.63}

Lookup: Need pIC50, item COc1cc([C@@H]2c3cc4c(cc3[C@@H](O[C@@H]3O[C@@H]5CO[C@@H](C)O[C@H]5[C@H](O)[C@H]3O)[C@H]3COC(=O)[C@H]23)OCO4)cc(OC)c1O [ETOPOSIDE]
Found: 4.77

* * *

Collected inhibition values appear next to each entry.
Target: DNA topoisomerase 2-alpha (Homo sapiens) (UniProt P11388)
Assay: Inhibition of human topoisomerase 2 alpha-mediated relaxation of supercoiled pBR322 DNA at 20 uM after 30 mins by agarose gel electrophoresis
Express your answer in %, writing the number without its unit.

Completed entries (count: 4):
{"compound": "Clc1ccc(-c2cc(-c3cccs3)nc(-c3cccs3)c2)o1", "inhibition [%]": 0}
{"compound": "Cc1ccsc1-c1cc(-c2ccoc2)cc(-c2ccsc2)n1", "inhibition [%]": 0}
{"compound": "Cc1ccsc1-c1cc(-c2ccco2)cc(-c2sccc2C)n1", "inhibition [%]": 14}
{"compound": "Cc1ccsc1-c1cc(-c2ccoc2)cc(-c2cccs2)n1", "inhibition [%]": 7}

Lookup: Find the recorded inhibition belonging to c1csc(-c2cc(-c3ccoc3)cc(-c3cccs3)n2)c1 and report it.
Found: 15

Lookup: Can you handle COc1cc([C@@H]2c3cc4c(cc3[C@@H](O[C@@H]3O[C@@H]5CO[C@@H](C)O[C@H]5[C@H](O)[C@H]3O)[C@H]3COC(=O)[C@H]23)OCO4)cc(OC)c1O [ETOPOSIDE] next?
Found: 36

Recorded values, source ChEMBL document CHEMBL1153176.
